Known % cholesterol efflux/4 hours at 3.0 µg/ml of a selection of binders
biological target: ATP-binding cassette transporter A1 (ABCA1) (UniProt P41233 1-2261, limits assumed); assay: cell-based or functional assay
Sequence (P41233 whole entry): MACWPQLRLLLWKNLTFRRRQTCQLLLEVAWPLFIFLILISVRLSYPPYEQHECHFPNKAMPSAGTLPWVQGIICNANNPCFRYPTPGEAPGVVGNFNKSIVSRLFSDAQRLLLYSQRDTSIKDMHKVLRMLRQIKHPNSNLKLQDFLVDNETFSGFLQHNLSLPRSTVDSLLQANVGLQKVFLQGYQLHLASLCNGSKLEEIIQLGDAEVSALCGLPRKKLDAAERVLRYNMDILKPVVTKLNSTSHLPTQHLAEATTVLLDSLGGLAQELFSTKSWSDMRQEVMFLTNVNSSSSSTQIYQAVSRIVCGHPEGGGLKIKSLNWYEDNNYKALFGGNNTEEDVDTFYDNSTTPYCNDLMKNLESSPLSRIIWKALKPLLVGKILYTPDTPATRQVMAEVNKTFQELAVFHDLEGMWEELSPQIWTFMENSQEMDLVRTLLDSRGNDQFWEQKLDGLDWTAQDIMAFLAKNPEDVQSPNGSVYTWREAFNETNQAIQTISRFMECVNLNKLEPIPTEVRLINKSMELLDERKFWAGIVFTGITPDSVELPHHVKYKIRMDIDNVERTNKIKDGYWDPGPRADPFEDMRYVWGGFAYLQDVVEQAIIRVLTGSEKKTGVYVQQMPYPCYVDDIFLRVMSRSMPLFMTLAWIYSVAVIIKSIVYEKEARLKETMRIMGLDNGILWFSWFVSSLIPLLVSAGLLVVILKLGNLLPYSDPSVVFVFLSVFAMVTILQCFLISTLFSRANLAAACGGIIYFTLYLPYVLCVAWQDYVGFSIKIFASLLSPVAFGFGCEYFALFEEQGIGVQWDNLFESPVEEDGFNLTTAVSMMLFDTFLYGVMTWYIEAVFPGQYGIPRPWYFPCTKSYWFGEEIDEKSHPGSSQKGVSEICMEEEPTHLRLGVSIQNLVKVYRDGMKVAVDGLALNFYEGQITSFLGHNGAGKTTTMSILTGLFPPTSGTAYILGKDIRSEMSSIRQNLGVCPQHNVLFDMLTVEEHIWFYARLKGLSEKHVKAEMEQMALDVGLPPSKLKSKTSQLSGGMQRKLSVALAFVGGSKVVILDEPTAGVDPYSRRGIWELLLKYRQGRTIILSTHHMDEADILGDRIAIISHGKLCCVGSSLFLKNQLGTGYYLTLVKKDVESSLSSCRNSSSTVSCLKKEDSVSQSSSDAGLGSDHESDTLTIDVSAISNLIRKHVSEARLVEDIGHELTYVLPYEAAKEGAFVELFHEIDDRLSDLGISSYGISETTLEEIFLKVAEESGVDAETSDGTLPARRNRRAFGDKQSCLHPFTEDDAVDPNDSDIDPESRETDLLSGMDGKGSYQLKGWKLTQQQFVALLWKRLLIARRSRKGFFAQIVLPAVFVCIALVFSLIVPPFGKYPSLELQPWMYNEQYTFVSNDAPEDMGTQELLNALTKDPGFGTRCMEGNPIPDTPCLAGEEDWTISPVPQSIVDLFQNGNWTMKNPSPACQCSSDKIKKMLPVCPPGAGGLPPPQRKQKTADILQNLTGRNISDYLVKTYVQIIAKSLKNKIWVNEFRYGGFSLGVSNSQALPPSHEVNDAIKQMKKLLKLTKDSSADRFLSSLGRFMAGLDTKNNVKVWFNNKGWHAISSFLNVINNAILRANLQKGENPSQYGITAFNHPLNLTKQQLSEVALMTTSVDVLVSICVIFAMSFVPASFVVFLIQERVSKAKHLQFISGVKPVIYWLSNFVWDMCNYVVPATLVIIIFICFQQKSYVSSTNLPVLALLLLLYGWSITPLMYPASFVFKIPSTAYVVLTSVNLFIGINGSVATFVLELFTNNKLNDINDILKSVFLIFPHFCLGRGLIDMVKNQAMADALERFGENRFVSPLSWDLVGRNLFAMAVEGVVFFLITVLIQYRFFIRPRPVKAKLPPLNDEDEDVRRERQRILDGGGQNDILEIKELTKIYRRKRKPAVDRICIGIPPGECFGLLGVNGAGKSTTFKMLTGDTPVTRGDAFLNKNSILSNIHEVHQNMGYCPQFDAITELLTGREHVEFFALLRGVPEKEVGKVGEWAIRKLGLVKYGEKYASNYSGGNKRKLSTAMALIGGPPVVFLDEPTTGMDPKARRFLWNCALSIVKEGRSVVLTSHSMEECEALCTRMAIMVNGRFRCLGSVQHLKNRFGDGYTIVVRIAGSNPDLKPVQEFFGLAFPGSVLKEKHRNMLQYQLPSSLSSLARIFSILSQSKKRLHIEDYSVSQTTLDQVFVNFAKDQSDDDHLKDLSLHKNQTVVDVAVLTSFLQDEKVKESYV
Give a bare numeral; the unit % is implied.

Previously resolved entries follow.
DLRDRLDAWFDLFRDFLDRF [N1154-5] = 5.28
ELRDKLEAWFDLFREFLERF [N1154-2] = 2.59
DLRDKLDAWFDLFRDFLDRF [N1154-3] = 2.66
ELRDRLEAWFDLFREFLERF [N1154-4] = 4.14

Consider the record given below.
stdin: Which % cholesterol efflux/4 hours at 3.0 µg/ml is listed for ELRERLEAWFELFREFLERF [N1154-1] ?
stdout: 5.11

Hey, just so you know, these numbers are from patent US20110190196A1.
